# Fibroblast growth factor receptor 1 (Homo sapiens): pIC50 values follow
# Sequence (P11362 whole entry): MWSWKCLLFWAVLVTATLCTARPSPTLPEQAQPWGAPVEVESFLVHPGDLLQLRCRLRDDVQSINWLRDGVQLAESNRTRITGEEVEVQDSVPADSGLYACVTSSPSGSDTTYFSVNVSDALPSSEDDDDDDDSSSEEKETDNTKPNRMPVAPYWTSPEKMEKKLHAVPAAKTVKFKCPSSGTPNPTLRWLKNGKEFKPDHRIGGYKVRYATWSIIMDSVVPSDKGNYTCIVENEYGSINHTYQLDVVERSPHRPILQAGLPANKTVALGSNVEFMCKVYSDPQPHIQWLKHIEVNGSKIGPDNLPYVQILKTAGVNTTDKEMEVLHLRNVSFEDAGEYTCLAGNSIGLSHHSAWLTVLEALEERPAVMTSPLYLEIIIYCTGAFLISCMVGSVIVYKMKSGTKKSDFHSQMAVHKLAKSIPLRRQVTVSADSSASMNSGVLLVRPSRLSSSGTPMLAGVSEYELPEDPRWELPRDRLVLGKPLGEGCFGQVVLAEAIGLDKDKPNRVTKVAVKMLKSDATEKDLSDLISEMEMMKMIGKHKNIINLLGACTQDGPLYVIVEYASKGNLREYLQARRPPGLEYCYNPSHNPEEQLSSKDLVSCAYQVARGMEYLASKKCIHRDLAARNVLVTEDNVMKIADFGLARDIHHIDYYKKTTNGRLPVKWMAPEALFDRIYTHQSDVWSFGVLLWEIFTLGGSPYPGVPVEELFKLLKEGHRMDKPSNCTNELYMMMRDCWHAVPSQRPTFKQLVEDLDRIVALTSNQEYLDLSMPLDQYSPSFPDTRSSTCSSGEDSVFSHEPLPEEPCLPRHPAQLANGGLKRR
Answers are plain numbers, as −log10 of the molar value.

O=c1[nH]c2ccccc2nc1/C=C/c1ccccn1 | 4.81

Input line: Need pIC50, item O=c1c(/C=C/c2ccccc2Cl)nc2ccccc2n1Cc1ccccc1
Output line: 4.59

###

Assay comment: Cytotoxicity against mock-infected human MT4 cells
Type: toxicity, cell-based
Measure name: CC50 (µM)
One number for each entry, in µM.

O=c1[nH]c2ccc(Cl)c(Cl)c2nc1CBr | 24
COc1ccc2[nH]c(=O)c(CBr)nc2c1Cl | 21

Input line: Would you mind telling me what CC50 value was observed for O=c1[nH]c2ccc(Cl)c(Cl)c2nc1C(F)(F)F ?
Output line: 108

Every entry's value here was drawn from ChEMBL document CHEMBL5113380.
